These data points were gathered from patent US20130309248A1.

target: HA of virus A/Wisconsin/67/2005 (H3N2) (influenza A virus (H3N2)); assay: cell-based or functional assay
Overview of reported Neutralization titer SK50 across a group of binders:
measuredProperty: Neutralization titer SK50

[[record]]
binder = "CR8016 (antibody, V domains shown) VH: EVQLVESGGDLVQPGGSLRLSCSASEFSFSSYWMSWVRQAPGKGLEWVANMKQDGSEKYYVDSVKGRFTISRDNAKNSLYLQMNSLRGEDTAVYYCARGSCDDSWTGCHDAFDI VL: QSVVTQPPSVSGAPGQRVTISCTGSSSNIGAGYDVHWYQQLPGTAPKLLIYGNNNRPSGVPDRFSGSRSGPLALLAITGLQAEDEADYYCQSYDSSLSVYV"
measuredproperty = "Neutralization titer SK50"
endpointresult = "1.77 µg/mL"

[[record]]
binder = "CR8049 (antibody, V domains shown) VH: QVTLKESGPVLVKPKETLTLTCTVSGFSLSNTRMGVSWIRQPPGKALEWLAHIFSNDETSYRTSLKRRLTISQDISKSQVVLSMTNVDPADTATYFCARIGSGYESSAYSTWLDP VL: QVQLQQWGAGLLKPSETLSLTCAVYGGSFTDHYWSWIRQSPGKGLEWIGEVVHSGDTNYTPSLRNRVSISVDSSKNQFSLRLGSVTAADTAVYYCARGRNVAVVGAIQRHYDY"
measuredproperty = "Neutralization titer SK50"
endpointresult = "3.26 µg/mL"

[[record]]
binder = "CR8017 (antibody, V domains shown) VH: EVQLVETGGDLVQPGGSLRLSCSASEFSFSSYWMSWVRQAPGKGLEWVANMKQDGSEKYYVDSVKGRFTISRDNAKNSLYLQMNSLRGEDTAVYYCARGSCDDSWTGCHDAFDI VL: SSELTQDPAVSVALGQTVRITCQGDSLRSYYASWYQQKPGQAPVLVIYAKTNRPSGIPDRFSGSTSGNTASLTITGAQAEDEADYYCNSRDSSGNHVV"
measuredproperty = "Neutralization titer SK50"
endpointresult = "2.82 µg/mL"

[[record]]
binder = "CR8039 (antibody, V domains shown) VH: QLQLQESGPGLVKPSETLSLTCTVSGGSIGSYYWSWIRQPPGKGLEWIGYIYYRGGTSYNPSLKSRVTISVDTSKSQFTLKLNSVTAADTAVYYCARKDWGSAAGSVWYFDL VL: QSALTQPPSASGSPGQSVTISCTGTSSDVGGYNYVSWYQQHPGKAPKLMIREVSKRPSGVPDRFSGSKSGNTASLTVSGLQAEDEAEYYCSSYAGSNNLI"
measuredproperty = "Neutralization titer SK50"
endpointresult = "1.8 µg/mL"

[[record]]
binder = "CR8052 (antibody, V domains shown) VH: DIQLTQSPSSLSASVGDRVTITCRASQGINTYLNWYQQKPGKAPKVLIFAASTLQSGVPSRFSGSGSGTEFTLNINNLQPEDFATYYCQQSYSTAIT VL: EVQLVESGGGVVQPGRSLRLSCAASGFSFTTYGMHWVRQAPGKGLEWVAFIWYDGSNKHYQDSVKGRFTISKDNSNNMLYLQMDSLRVADTAVYYCVRDGGYSTWEWYFDL"
measuredproperty = "Neutralization titer SK50"
endpointresult = "> 40 µg/mL"

